# System: human platelets
# procedure_details: Inhibition of platelet aggregation in vitro
# Format: cell-based
# experimental_context: human PRP, collagen 1.0 μg/mL, drug added 10 min before stimulus, read-out: Platelet Aggregation IC50 (collagen 95%) 10 min
Reported IC50 values are given for each entry in this list.
Write the answer as a number in µM, unit excluded.

CC(=O)Oc1ccccc1C(=O)OCOC(=O)c1ccc(S(=O)(=O)CCCO[N+](=O)[O-])cc1 [(15)] | 34

What value of measured IC50 is listed for CC(=O)Oc1ccccc1C(=O)OCOC(=O)c1ccc(CCCO[N+](=O)[O-])cc1 [(12)] ?
41

###

# procedure_details: Hydrolysis in human serum
# Format: in vitro ADME
# experimental_context: male, 37 °C, compound 250 μM, read-out: Human serum stability t1/2
Let's look at some compounds and their measured half-life at 250 μM.
// units = min; emit number, no label

CC(=O)Oc1ccccc1C(=O)O [Aspirin, reference compound] | 63
CC(=O)Oc1ccccc1C(=O)OCOC(=O)c1ccc(S(=O)(=O)CCCO[N+](=O)[O-])cc1 | 1
CC(=O)Oc1ccccc1C(=O)OCOC(=O)c1ccc(CC(CO[N+](=O)[O-])O[N+](=O)[O-])cc1 (centres unmarked) | 3.4
CC(=O)Oc1ccccc1C(=O)OCOC(=O)CCCCC(CO[N+](=O)[O-])O[N+](=O)[O-] (centres unmarked) | 2.5
CC(=O)Oc1ccccc1C(=O)OCOC(=O)c1ccc(OCC(CO[N+](=O)[O-])O[N+](=O)[O-])cc1 (centres unmarked) | 5.4

Find the recorded half-life at 250 μM belonging to CC(=O)Oc1ccccc1C(=O)OCOC(=O)CCCC(CO[N+](=O)[O-])O[N+](=O)[O-] (centres unmarked) and report it.
2.7

Item: `CC(=O)Oc1ccccc1C(=O)OCOC(=O)c1ccc(OCCCO[N+](=O)[O-])cc1`
3

Can you handle CC(=O)Oc1ccccc1C(=O)OCOC(=O)c1ccc(SCC(CO[N+](=O)[O-])O[N+](=O)[O-])cc1 (centres unmarked) next?
4.8

Continue with `CC(=O)Oc1ccccc1C(=O)OCOC(=O)Cc1ccc(OCCCO[N+](=O)[O-])cc1`
1.5

How about `CC(=O)Oc1ccccc1C(=O)OCOC(=O)c1ccc(SCCCO[N+](=O)[O-])cc1` ?
2

Now the compound CC(=O)Oc1ccccc1C(=O)OC(C)OC(=O)c1ccc(SCCCO[N+](=O)[O-])cc1 (centres unmarked)
4.2
